Molecular target: T1, wild type, full length human TNFR2 (on cells) (human, UniProt P20333 23-461)
T1 construct: whole, on cells; also called hTNFR2; TNFRII
T1 sequence (looked up): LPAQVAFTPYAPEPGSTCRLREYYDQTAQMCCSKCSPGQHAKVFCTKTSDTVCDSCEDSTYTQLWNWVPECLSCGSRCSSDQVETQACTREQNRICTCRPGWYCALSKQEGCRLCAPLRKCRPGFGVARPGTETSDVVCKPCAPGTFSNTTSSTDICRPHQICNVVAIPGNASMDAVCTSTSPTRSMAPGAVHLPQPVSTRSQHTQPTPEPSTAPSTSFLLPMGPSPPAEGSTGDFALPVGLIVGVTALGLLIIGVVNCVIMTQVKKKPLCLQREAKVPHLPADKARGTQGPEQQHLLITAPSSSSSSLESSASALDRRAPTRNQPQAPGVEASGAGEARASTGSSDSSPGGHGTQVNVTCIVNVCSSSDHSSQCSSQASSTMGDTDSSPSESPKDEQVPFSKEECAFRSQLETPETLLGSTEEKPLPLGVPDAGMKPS
Experiment: FACS, activated CD4+ T cells
Reported values of EC50 for individual entries
Use nM as the unit, but write only the number.

Some entries whose results are on file:
001-B05 (antibody, V domains shown, IgG) VH: EVQLLESGGGLVQPGGSLRLSCAASGFTFSNAWMSWVRQAPGKGLEWVSSISSASGYIYYGDSVKGRFTISRDNSKNTLYLQMNNLRAEDTAVYYCARGTLYGDFDEFWGQGTLVTVSS VL: QSVLTQPPSASGTPGQRVTISCSGSSSNIGNNAVNWYQQLPGTAPKLLIYGNTNRPSGVPDRFSGSKSGTSASLAISGLRSEDEADYYCQSYDSSLSGYVVFGGGTKLTVLG ... 1.5
001-C05 (antibody, V domains shown, IgG) VH: EVQLLESGGGLVQPGGSLRLSCAASGFTFSSNEMSWIRQAPGKGLEWVSVIYSGGSTYYADSVKGRFTISRDNSKNTLYLQMNSLRAEDTAVYYCARREGWLVPFDYWGQGTLVTVSS VL: QSVLTQPPSASGTPGQRVTISCSGSSSNIGSNTVNWYQQLPGTAPKLLIYGNIIRPSGVPDRFSGSKSGTSASLAISGLRSEDEADYYCQSFDTTLSGSIVFGGGTKLTVLG ... 12

Please turn your attention to the following entry.
Req: For the binder 001-F02 (antibody, V domains shown, IgG; In the MDSC assay tested as hIgG1, hIgG2 and N297Q) VH: EVQLLESGGGLVQPGGSLRLSCAASGFTFSDYYMSWVRQAPGKGLEWVANINTDGSEKYYLDSVKGRFTISRDNSKNTLYLQMNSLRAEDTAVYYCAREEYGAFDIWGQGTLVTVSS VL: QSVLTQPPSASGTPGQRVTISCSGSSSNIGSNTVNWYQQLPGTAPKLLIYDNNKRPSGVPDRFSGSKSGTSASLAISGLRSEDEADYYCQSFDRGLSGSIVFGGGTKLTVLG , report EC50.
Resp: 0.79
